Biological target: Alpha-2C adrenergic receptor (Rattus norvegicus, UniProt P22086)
Sequence (P22086 whole entry): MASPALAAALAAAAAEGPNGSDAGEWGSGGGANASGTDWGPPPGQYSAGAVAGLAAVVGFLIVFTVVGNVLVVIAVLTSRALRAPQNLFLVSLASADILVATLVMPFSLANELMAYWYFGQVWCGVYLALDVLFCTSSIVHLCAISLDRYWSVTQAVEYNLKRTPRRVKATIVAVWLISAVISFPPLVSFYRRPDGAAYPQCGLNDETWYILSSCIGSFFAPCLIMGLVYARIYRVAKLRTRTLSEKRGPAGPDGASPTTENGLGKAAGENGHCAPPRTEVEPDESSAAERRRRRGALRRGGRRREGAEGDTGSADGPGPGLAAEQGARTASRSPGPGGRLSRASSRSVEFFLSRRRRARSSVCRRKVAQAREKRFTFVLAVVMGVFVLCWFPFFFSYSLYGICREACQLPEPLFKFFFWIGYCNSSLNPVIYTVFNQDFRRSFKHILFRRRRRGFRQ
Entries and their Ki values follow.

NCCc1c[nH]c2ccc(O)cc12 [[3H]-5-HT] | > 10 µM

Next:
Need Ki, item COc1ccc(OC)c(C(O)C(C)N)c1 (configuration not stated)
> 10 µM
